These entries and their values trace back to patent US6566587B1.

- target.entity: maize EPSPS mutant Ile102 (Thr 102→Ile) (Zea mays, UniProt O24566, T102I)
- Sequence (O24566 1-444 T102I): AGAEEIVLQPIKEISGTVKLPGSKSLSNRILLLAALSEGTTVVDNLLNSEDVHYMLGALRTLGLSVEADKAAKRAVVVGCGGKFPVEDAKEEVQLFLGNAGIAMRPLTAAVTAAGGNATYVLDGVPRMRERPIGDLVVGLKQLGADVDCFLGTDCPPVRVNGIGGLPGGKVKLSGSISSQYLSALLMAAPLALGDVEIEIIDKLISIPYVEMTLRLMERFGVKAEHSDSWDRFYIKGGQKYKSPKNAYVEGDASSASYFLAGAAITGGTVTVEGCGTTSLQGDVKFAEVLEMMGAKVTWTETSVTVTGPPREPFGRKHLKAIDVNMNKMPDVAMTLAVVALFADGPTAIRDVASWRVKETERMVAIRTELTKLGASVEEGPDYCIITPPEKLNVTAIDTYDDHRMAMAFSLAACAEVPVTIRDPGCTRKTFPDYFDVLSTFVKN
- assay.explanation: In vitro EPSP synthase activity, inhibition by glyphosate (phosphate liberated)
- study.conditions: 10 minutes at 37° C., pH 5.6, 1 mM phosphoenolpyruvate; read-out: glyphosate concentration producing a 50% inhibition
test.readout: IC50 (µM)

[[record]]
compound = "O=C(O)CNCP(=O)(O)O [glyphosate, N-(phosphonomethyl)glycine]"
test_readout = "IC50"
unit_abbreviation = "µM"
data_value = 1200

